Tested on: M. smegmatis
Assay info: In vitro antimycobacterial activity, MABA
Assay type: cell-based, Mycobacterium smegmatis
Condition context: Mycolicibacterium smegmatis, read-out: MIC M. smeg
MIC values by entry
Reported endpoint: MIC

[[record]]
molecule = "O=C(Nc1ccccc1F)c1cnc2ccccc2n1 [Compound 7]"
test_system = "M. smegmatis"
reported_endpoint = "MIC"
result = "234 µM"

[[record]]
molecule = "CO[C@H]1/C=C/O[C@@]2(C)Oc3c(C)c(O)c4c(O)c(c(/C=N/N5CCN(C)CC5)c(O)c4c3C2=O)NC(=O)/C(C)=C\\C=C\\[C@H](C)[C@H](O)[C@@H](C)[C@@H](O)[C@@H](C)[C@H](OC(C)=O)[C@@H]1C [RIF, rifampicin, reference compound]"
test_system = "M. smegmatis"
reported_endpoint = "MIC"
result = "12.5 µg/mL"

[[record]]
molecule = "O=C(NCc1cccc(O)c1)c1cnc2ccccc2n1 [Compound 16]"
test_system = "M. smegmatis"
reported_endpoint = "MIC"
result = "237 µM"

[[record]]
molecule = "O=C(NCc1cccc(Cl)c1)c1cnc2ccccc2n1 [Compound 26]"
test_system = "M. smegmatis"
reported_endpoint = "MIC"
result = "105 µM"

[[record]]
molecule = "O=C(NCc1ccccc1Cl)c1cnc2ccccc2n1 [Compound 25]"
test_system = "M. smegmatis"
reported_endpoint = "MIC"
result = "≥ 500 µg/mL"

[[record]]
molecule = "COc1cccc(CNC(=O)c2cnc3ccccc3n2)c1 [Compound 19]"
test_system = "M. smegmatis"
reported_endpoint = "MIC"
result = "≥ 500 µg/mL"

[[record]]
molecule = "O=C(NC1CCCCC1)c1cnc2ccccc2n1 [Compound 6]"
test_system = "M. smegmatis"
reported_endpoint = "MIC"
result = "122 µM"

[[record]]
molecule = "COc1ccc(OC)c(CNC(=O)c2cnc3ccccc3n2)c1 [Compound 18]"
test_system = "M. smegmatis"
reported_endpoint = "MIC"
result = "≥ 500 µg/mL"

[[record]]
molecule = "COc1ccc(CNC(=O)c2cnc3ccccc3n2)cc1 [Compound 20]"
test_system = "M. smegmatis"
reported_endpoint = "MIC"
result = "≥ 250 µg/mL"

[[record]]
molecule = "NNC(=O)c1ccncc1 [INH, isoniazid, reference compound]"
test_system = "M. smegmatis"
reported_endpoint = "MIC"
result = "15.6 µg/mL"

